The measurements presented in this section are drawn from the supplement of paper PMC11781733.

- System: Dugesia japonica
- runDescription: loss of heat-induced scrunching incidence (% planarians (vehicle-normalised)); higher = higher incidence or increase relative to vehicle control
- runParameters: exposure time: 15 min to 3 h acute
Structures can show the parent of a compound that is named as a salt.
# loss of heat-induced scrunching incidence >= 20 gives yes, anything below gives no

Does O=C(CCCN1CC=C(n2c(=O)[nH]c3ccccc32)CC1)c1ccc(F)cc1 [droperidol] (1 µM) have a reported loss of heat-induced scrunching incidence of at least 20?
yes

Lookup CN(C)CCCC1(c2ccc(F)cc2)OCc2cc(C#N)ccc21 (configuration not stated) [citalopram hydrobromide] (1000 µM)
no

Lookup CN(C)CCC[C@@]1(c2ccc(F)cc2)OCc2cc(C#N)ccc21 [escitalopram] (316 µM)
yes

Lookup O=C1CC2(CCCC2)CC(=O)N1CCCCN1CCN(c2ncccn2)CC1 [buspirone] (31.6 µM)
yes

Lookup O=C(CCCN1CCC(O)(c2ccc(Cl)cc2)CC1)c1ccc(F)cc1 [haloperidol] (100 µM)
yes

Lookup Cc1cc2c(s1)Nc1ccccc1N=C2N1CCN(C)CC1 [olanzapine] (316 µM)
yes

Lookup CN(C)CCCC1(c2ccc(F)cc2)OCc2cc(C#N)ccc21 (configuration not stated) [citalopram hydrobromide] (316 µM)
no

Lookup [Cl-].[Na+] [sodium chloride] (3470 µM)
no

Lookup CCCCNc1c(C(=O)OCC)c(C)nc2c1cnn2CC [tracazolate hydrochloride] (1 µM)
no

Lookup CN(C)CCCN1c2ccccc2CCc2ccccc21 [imipramine] (1 µM)
no

Lookup CN1C(=O)CN=C(c2ccccc2)c2cc(Cl)ccc21 [diazepam] (31.6 µM)
no

Lookup O=C(CCCN1CCC(O)(c2ccc(Cl)cc2)CC1)c1ccc(F)cc1 [haloperidol] (10 µM)
yes

Lookup CCCCNc1c(C(=O)OCC)c(C)nc2c1cnn2CC [tracazolate hydrochloride] (31.6 µM)
yes

Lookup CN(C)CCCN1c2ccccc2CCc2ccccc21 [imipramine] (0.316 µM)
no

Lookup O=C(CCCN1CC=C(n2c(=O)[nH]c3ccccc32)CC1)c1ccc(F)cc1 [droperidol] (3.16 µM)
yes

Lookup CNCC[C@H](Oc1cccc2ccccc12)c1cccs1 [s-duloxetine] (3.16 µM)
yes

Lookup O=C1CCc2ccc(OCCCCN3CCN(c4cccc(Cl)c4Cl)CC3)cc2N1 [aripiprazole] (3.16 µM)
no

----------
Please provide measured pharynx extrusion incidence for the entries that follow.
- Tested on: Dugesia japonica
- runDescription: pharynx extrusion incidence (% planarians (vehicle-normalised)); higher = higher incidence or increase relative to vehicle control
- runParameters: exposure time: 15 min to 3 h acute

Identify the measured pharynx extrusion incidence of CN(C)CCC[C@@]1(c2ccc(F)cc2)OCc2cc(C#N)ccc21 [escitalopram] (316 µM) for Dugesia japonica.
0

Lookup CN1CC(=O)N=C1NC(=O)Nc1cccc(Cl)c1 [fenobam] (178 µM)
0

Lookup CN(C)CCCN1c2ccccc2CCc2ccccc21 [imipramine] (31.6 µM)
4.17

Lookup CN1C(=O)CN=C(c2ccccc2)c2cc(Cl)ccc21 [diazepam] (3.16 µM)
0

Lookup CN1CCN(C2=Nc3cc(Cl)ccc3Nc3ccccc32)CC1 [clozapine] (100 µM)
0

----------
Please provide measured loss of phototaxis incidence for the entries that follow.
- Test system: Dugesia japonica
- runDescription: loss of phototaxis incidence (% planarians (vehicle-normalised)); higher = higher incidence or increase relative to vehicle control
- runParameters: exposure time: 15 min to 3 h acute
Please reply with the number alone, leaving off any unit.

Form field: reported loss of phototaxis incidence of CN(C)CCCN1c2ccccc2CCc2ccccc21 [imipramine] (0.316 µM)
4.17

Lookup Cc1cc2c(s1)Nc1ccccc1N=C2N1CCN(C)CC1 [olanzapine] (31.6 µM)
17.4

----------
- Tested on: Dugesia japonica
- runDescription: loss of heat-induced scrunching incidence (% planarians (vehicle-normalised)); higher = higher incidence or increase relative to vehicle control
- runParameters: exposure time: 15 min to 3 h acute
Where a name gives a salt, the structure may show the parent alone.
measurementKind: loss of heat-induced scrunching incidence
Please reply with the number alone, leaving off any unit.

Form field: reported loss of heat-induced scrunching incidence of CN1CCN(CCCN2c3ccccc3Sc3ccc(Cl)cc32)CC1 [prochloroperazine] (3.16 µM)
45.8

Lookup CN1C(=O)CN=C(c2ccccc2)c2cc(Cl)ccc21 [diazepam] (10 µM)
12.5

Lookup O=C(CCCN1CC=C(n2c(=O)[nH]c3ccccc32)CC1)c1ccc(F)cc1 [droperidol] (10 µM)
70.8

Lookup CN(C)CCCC1(c2ccc(F)cc2)OCc2cc(C#N)ccc21 (stereo not drawn) [citalopram hydrobromide] (100 µM)
25

----------
- Tested on: Dugesia japonica
- runDescription: pharynx extrusion incidence (% planarians (vehicle-normalised)); higher = higher incidence or increase relative to vehicle control
- runParameters: exposure time: 15 min to 3 h acute
Counter-ions that a name gives are not always drawn.
measurementKind: pharynx extrusion incidence
Please reply with the number alone, leaving off any unit.

Identify the measured pharynx extrusion incidence of CN1CCN(C2=Nc3cc(Cl)ccc3Nc3ccccc32)CC1 [clozapine] (31.6 µM) for Dugesia japonica.
0

Lookup CN(C)CCC[C@@]1(c2ccc(F)cc2)OCc2cc(C#N)ccc21 [escitalopram] (10 µM)
0

Lookup O=C(O)C(=O)O [oxalic acid] (1000 µM)
0

Lookup CN1CC(=O)N=C1NC(=O)Nc1cccc(Cl)c1 [fenobam] (562 µM)
0

Lookup CN1C(=O)CN=C(c2ccccc2)c2cc(Cl)ccc21 [diazepam] (100 µM)
37.5

Lookup CCCCNc1c(C(=O)OCC)c(C)nc2c1cnn2CC [tracazolate hydrochloride] (1 µM)
0

Lookup Cc1cc2c(s1)Nc1ccccc1N=C2N1CCN(C)CC1 [olanzapine] (10 µM)
0

Lookup Cc1cc2c(s1)Nc1ccccc1N=C2N1CCN(C)CC1 [olanzapine] (100 µM)
0

Lookup O=C(CCCN1CCC(O)(c2ccc(Br)cc2)CC1)c1ccc(F)cc1 [bromperidol] (3.16 µM)
0

----------
- Tested on: Dugesia japonica
- runDescription: loss of phototaxis incidence (% planarians (vehicle-normalised)); higher = higher incidence or increase relative to vehicle control
- runParameters: exposure time: 15 min to 3 h acute
Where a name gives a salt, the structure may show the parent alone.
Please provide measured loss of phototaxis incidence for the entries that follow.
Please reply with the number alone, leaving off any unit.

Form field: reported loss of phototaxis incidence of CN(C)CCCC1(c2ccc(F)cc2)OCc2cc(C#N)ccc21 (centres undefined) [citalopram hydrobromide] (1000 µM)
16.7

Lookup O=C(CCCN1CCC(O)(c2ccc(Cl)cc2)CC1)c1ccc(F)cc1 [haloperidol] (1 µM)
21.7

Lookup O=C(O)C(=O)O [oxalic acid] (316 µM)
8.33

Lookup CC(NC(C)(C)C)C(=O)c1cccc(Cl)c1 (centres undefined) [bupropion] (100 µM)
4.17

Lookup O=C(CCCN1CCC(O)(c2ccc(Cl)cc2)CC1)c1ccc(F)cc1 [haloperidol] (100 µM)
13

Lookup Cc1ncc2n1-c1ccc(Cl)cc1C(c1ccccc1F)=NC2 [midazolam] (100 µM)
29.2

----------
- Tested on: Dugesia japonica
- runDescription: noxious heat displacement strength vs vehicle (% change vs vehicle); higher = higher incidence or increase relative to vehicle control
- runParameters: exposure time: 15 min to 3 h acute
Please provide measured noxious heat displacement strength for the entries that follow.
Please reply with the number alone, leaving off any unit.

Form field: reported noxious heat displacement strength of O=C(CCCN1CCC(O)(c2ccc(Br)cc2)CC1)c1ccc(F)cc1 [bromperidol] (31.6 µM)
-36.2

Lookup O=C(O)C(=O)O [oxalic acid] (1000 µM)
-57

Lookup CN1CC(=O)N=C1NC(=O)Nc1cccc(Cl)c1 [fenobam] (100 µM)
-43

Lookup CN1CC(=O)N=C1NC(=O)Nc1cccc(Cl)c1 [fenobam] (178 µM)
-42.2

Lookup CC(NC(C)(C)C)C(=O)c1cccc(Cl)c1 (stereo not given) [bupropion] (100 µM)
-32.4

----------
- Test system: Dugesia japonica
- runDescription: loss of phototaxis incidence (% planarians (vehicle-normalised)); higher = higher incidence or increase relative to vehicle control
- runParameters: exposure time: 15 min to 3 h acute
Structures can show the parent of a compound that is named as a salt.
measurementKind: loss of phototaxis incidence
Please reply with the number alone, leaving off any unit.

Form field: reported loss of phototaxis incidence of O=C1CC2(CCCC2)CC(=O)N1CCCCN1CCN(c2ncccn2)CC1 [buspirone] (3.16 µM)
16.7

Lookup CN[C@H]1CC[C@@H](c2ccc(Cl)c(Cl)c2)c2ccccc21 [sertraline hydrochloride] (3.16 µM)
18.2

Lookup O=C(CCCN1CCC(O)(c2ccc(Cl)cc2)CC1)c1ccc(F)cc1 [haloperidol] (10 µM)
20

Lookup O=C1CCc2ccc(OCCCCN3CCN(c4cccc(Cl)c4Cl)CC3)cc2N1 [aripiprazole] (1 µM)
29.2

Lookup O=C(O)C(=O)O [oxalic acid] (1000 µM)
54.2

Lookup CN1C(=O)CN=C(c2ccccc2)c2cc(Cl)ccc21 [diazepam] (31.6 µM)
8.33

Lookup O=C1CCc2ccc(OCCCCN3CCN(c4cccc(Cl)c4Cl)CC3)cc2N1 [aripiprazole] (3.16 µM)
45.8

Lookup CN(C)CCCN1c2ccccc2CCc2ccccc21 [imipramine] (10 µM)
12.5

Lookup CN1CCN(C2=Nc3cc(Cl)ccc3Nc3ccccc32)CC1 [clozapine] (100 µM)
62.5
